Collected inhibition at 1 µM values appear next to each entry.
Target: human μ-opiate receptor (Homo sapiens)
Construct: purchased Nen company, Zaventem, Belgium RB-HOM; host or cells: CHO-K1 cells (membrane preparation)
Experiment: Affinity for the human μ-opiate receptor ([3H]-naloxone displacement, SPA, CHO-K1 membrane preparation)
Conditions: test substance 1 μmole/l; displacement of 1 nmole/l [3H]-naloxone; percentage inhibition of the specific binding; read-out: μ-opioid receptor, % inhibition [1 μM]
ENDPOINT_NAME: inhibition at 1 µM (%)

CN(C)C(c1cccs1)C1CCC(C(c2nc(Cc3ccccc3)c(N3CCC(Cc4ccccc4)CC3)o2)N2CCCCC2)CC1 (centres unmarked) = 70
CC1CCCN(c2oc(C(CC3CCC(C(c4ccc(F)cc4)N(C)C)CC3)N3CCN(Cc4ccccc4)CC3)nc2Cc2ccccc2)C1 (centres unmarked) = 61
CC1CCN(c2oc(C(CC3CCC(C(c4ccc(F)cc4)N(C)C)CC3)N3CCCCC3)nc2Cc2ccccc2)CC1 (centres unmarked) = 61
CC1CCN(c2oc(C(CC3CCC(C(c4ccc(F)cc4)N(C)C)CC3)N3CCN(Cc4ccccc4)CC3)nc2Cc2ccccc2)CC1 (centres unmarked) = 67
COc1ccc(N2CCN(c3oc(C(CC4CCC(C(c5cccs5)N(C)C)CC4)N4CCc5ccccc5C4)nc3Cc3ccccc3)CC2)cc1 (centres unmarked) = 78
CN(C)C(c1cccs1)C1CCC(CC(c2nc(Cc3ccccc3)c(N3CCC(Cc4ccccc4)CC3)o2)N2CCN(Cc3ccccc3)CC2)CC1 (centres unmarked) = 81
CN(C)C(c1ccc(F)cc1)C1CCC(C(c2nc(Cc3ccccc3)c(N3CCOCC3)o2)N(C)c2ccccc2)CC1 (centres unmarked) = 65
CN(C)C(c1cccs1)C1CCC(CC(c2nc(Cc3ccccc3)c(N3CCN(Cc4ccccc4)CC3)o2)N2CCN(Cc3ccccc3)CC2)CC1 (centres unmarked) = 83
CCN(CC)C(CC1CCC(C(c2ccc(F)cc2)N(C)C)CC1)c1nc(Cc2ccccc2)c(N2CCCC(C)C2)o1 (centres unmarked) = 86
CN(CCc1ccccc1)c1oc(C(CC2CCC(C(c3ccc(Cl)cc3)N(C)C)CC2)N2CCN(Cc3ccccc3)CC2)nc1Cc1ccccc1 (centres unmarked) = 66
COc1ccc(N2CCN(c3oc(C(CC4CCC(C(c5cccc(F)c5)N(C)C)CC4)N4CCc5ccccc5C4)nc3Cc3ccccc3)CC2)cc1 (centres unmarked) = 84
CC1CC(C)CN(c2oc(C(CC3CCC(C(c4ccc(F)cc4)N(C)C)CC3)N(C)c3ccccc3)nc2Cc2ccccc2)C1 (centres unmarked) = 68
CN(CCc1ccccc1)c1oc(C(CC2CCC(C(c3ccc(F)cc3)N(C)C)CC2)N2CCCCC2)nc1Cc1ccccc1 (centres unmarked) = 65
CCN(CC)C(CC1CCC(C(c2ccc(Cl)cc2)N(C)C)CC1)c1nc(Cc2ccccc2)c(N(C)CCc2ccccc2)o1 (centres unmarked) = 87

---

Target: human μ-opiate receptor (Homo sapiens, UniProt P35372)
Construct: purchased Nen company, Zaventem, Belgium RB-HOM; host or cells: CHO-K1 cells (membrane preparation)
Sequence (P35372 whole entry): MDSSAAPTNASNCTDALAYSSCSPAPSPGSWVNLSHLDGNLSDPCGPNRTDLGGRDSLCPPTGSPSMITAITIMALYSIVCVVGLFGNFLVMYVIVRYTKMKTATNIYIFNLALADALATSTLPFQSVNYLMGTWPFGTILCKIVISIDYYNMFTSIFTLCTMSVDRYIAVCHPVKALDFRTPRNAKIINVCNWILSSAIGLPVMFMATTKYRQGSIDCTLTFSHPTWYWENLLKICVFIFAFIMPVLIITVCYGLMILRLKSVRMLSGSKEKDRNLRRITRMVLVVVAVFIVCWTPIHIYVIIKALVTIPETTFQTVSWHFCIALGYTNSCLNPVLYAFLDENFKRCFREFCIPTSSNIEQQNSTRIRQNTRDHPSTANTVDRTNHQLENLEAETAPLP
Experiment: Affinity for the human μ-opiate receptor ([3H]-naloxone displacement, SPA, CHO-K1 membrane preparation)
Details: test substance 1 μmole/l; displacement of 1 nmole/l [3H]-naloxone; percentage inhibition of the specific binding; read-out: μ-opioid receptor, % inhibition [1 μM]
ENDPOINT_NAME: inhibition at 1 µM (%)

CCN(CC)c1oc(C(CC2CCC(C(c3cccs3)N(C)C)CC2)N2CCCCC2)nc1Cc1ccccc1 (stereo not drawn) = 98
CCN(CC)c1oc(C(CC2CCC(C(c3ccc(Cl)cc3)N(C)C)CC2)N(CC)CC)nc1Cc1ccccc1 (stereo not drawn) = 89
CCN(CC)c1oc(C(C2CCC(C(c3ccc(F)cc3)N(C)C)CC2)N(CC)CC)nc1Cc1ccccc1 (stereo not drawn) = 61

---

Target: human μ-opiate receptor (Homo sapiens, UniProt P35372)
Construct: purchased Nen company, Zaventem, Belgium RB-HOM; host or cells: CHO-K1 cells (membrane preparation)
Experiment: Affinity for the human μ-opiate receptor ([3H]-naloxone displacement, SPA, CHO-K1 membrane preparation)
Conditions: test substance 1 μmole/l; displacement of 1 nmole/l [3H]-naloxone; percentage inhibition of the specific binding; read-out: μ-opioid receptor, % inhibition [1 μM]
Parameter threshold = 70%. Response is rule met when inhibition at 1 µM meets or exceeds it, else rule not met.

CN(C)C(c1cccs1)C1CCC(C(c2nc(Cc3ccccc3)c(N3CCSCC3)o2)N2CCN(Cc3ccccc3)CC2)CC1 (stereo not drawn) = rule not met
CN(C)C(c1ccc(Cl)cc1)C1CCC(CC(c2nc(Cc3ccccc3)c(N3CCSCC3)o2)N(C)c2ccccc2)CC1 (stereo not drawn) = rule met
CN(C)C(c1ccc(Cl)cc1)C1CCC(CC(c2nc(Cc3ccccc3)c(N3CCN(Cc4ccccc4)CC3)o2)N2CCCCC2)CC1 (stereo not drawn) = rule not met
CN(C)C(c1cccs1)C1CCC(C(c2nc(Cc3ccccc3)c(N3CCSCC3)o2)N(C)c2ccccc2)CC1 (stereo not drawn) = rule met
CN(Cc1ccccc1)c1oc(C(CC2CCC(C(c3ccc(F)cc3)N(C)C)CC2)N2CCCCC2)nc1Cc1ccccc1 (stereo not drawn) = rule not met
CN(C)C(c1cccs1)C1CCC(CC(c2nc(Cc3ccccc3)c(N3CCSCC3)o2)N2CCN(Cc3ccccc3)CC2)CC1 (stereo not drawn) = rule met

---

Collected inhibition at 1 µM values appear next to each entry.
Molecular target: human μ-opiate receptor (Homo sapiens)
Construct: purchased Nen company, Zaventem, Belgium RB-HOM; host or cells: CHO-K1 cells (membrane preparation)
Assay: Affinity for the human μ-opiate receptor ([3H]-naloxone displacement, SPA, CHO-K1 membrane preparation)
Settings: test substance 1 μmole/l; displacement of 1 nmole/l [3H]-naloxone; percentage inhibition of the specific binding; read-out: μ-opioid receptor, % inhibition [1 μM]
ENDPOINT_NAME: inhibition at 1 µM (%)

CCN(CC)C(c1nc(Cc2ccccc2)c(N(C)Cc2ccccc2)o1)C1CCC(C(c2cccs2)N(C)C)CC1 (stereo not drawn) = 92
CCN(CC)C(CC1CCC(C(c2cccs2)N(C)C)CC1)c1nc(Cc2ccccc2)c(N2CCC(Cc3ccccc3)CC2)o1 (stereo not drawn) = 91
CN(CCc1ccccc1)c1oc(C(CC2CCC(C(c3cccs3)N(C)C)CC2)N2CCCCC2)nc1Cc1ccccc1 (stereo not drawn) = 88

---

Molecular target: human μ-opiate receptor (Homo sapiens, UniProt P35372)
Construct: purchased Nen company, Zaventem, Belgium RB-HOM; host or cells: CHO-K1 cells (membrane preparation)
Experiment: Affinity for the human μ-opiate receptor ([3H]-naloxone displacement, SPA, CHO-K1 membrane preparation)
Details: test substance 1 μmole/l; displacement of 1 nmole/l [3H]-naloxone; percentage inhibition of the specific binding; read-out: μ-opioid receptor, % inhibition [1 μM]
Collected inhibition at 1 µM values appear next to each entry.
ENDPOINT_NAME: inhibition at 1 µM (%)

CC1CCN(c2oc(C(CC3CCC(C(c4ccc(Cl)cc4)N(C)C)CC3)N3CCN(Cc4ccccc4)CC3)nc2Cc2ccccc2)CC1 (stereo not drawn) = 69
CCN(CC)C(c1nc(Cc2ccccc2)c(N2CCCC(C)C2)o1)C1CCC(C(c2ccc(F)cc2)N(C)C)CC1 (stereo not drawn) = 69
COc1ccc(N2CCN(C(c3nc(Cc4ccccc4)c(N4CCOCC4)o3)C3CCC(C(c4ccc(Cl)cc4)N(C)C)CC3)CC2)cc1 (stereo not drawn) = 70
